system: MDA-MB-231 breast; assay: NCI tumour cell line growth inhibition, 48 h
Measured Quantity: TGI (µM)
Numbers only, in µM.

Below, 3 compounds whose answers are already recorded.
COc1cccc(S(=O)(=O)NC2=NCCN2C(=S)SN2CCn3c2nsc3=S)c1 :: 96
COc1ccc(C(=O)/C=C/c2cc(-c3ccc(OC)c(OC)c3)n[nH]2)cc1OC :: 6.38
O=C(C[C@@H]1CCCN2CCCC[C@H]12)N1c2ccccc2Sc2ccc(Cl)cc21 :: 28.4

Consider the following items and state reported TGI for each.
1. CC(C)(C)c1cc(C[P+](c2ccccc2)(c2ccccc2)c2ccccc2)cc(C(C)(C)C)c1O
2. CCN1/C(=C/C(C)=C/c2sc3ccc4ccccc4c3[n+]2CC)Sc2ccc3ccccc3c21

2.84
1.04

Please give TGI, item by item, for the list that follows.
1. CN(CCNC(=O)c1cn(C)c2c1ccc1ccccc12)CCNC(=O)c1cn(C)c2c1ccc1ccccc12
2. Clc1cc(Br)ccc1-c1ccc(CNCC2CCNCC2)o1

1. 3.8
2. 3.42

###

test system: CCRF-CEM leukemia; experiment: NCI tumour cell line growth inhibition, 48 h
Measured Quantity: GI50

Give GI50 for all compounds that follow.
1. COc1cc2c3c(n(CCCN=[N+]=[N-])c(=O)c2cc1OC)-c1ccc(F)cc1C3=O
2. COc1cc2c3c(n(CCCN=[N+]=[N-])c(=O)c2cc1OC)-c1ccccc1C3=O
3. CCCN(CCC)c1ccc(/C=N/NC(=O)c2cccnc2)c(C)c1
4. Cn1cnc([N+](=O)[O-])c1S(=O)(=O)Oc1ccc(Cl)cc1
5. Cc1cccc2c(=O)c3c(sc12)c(NCCCNCCO)nc1ccccc13
6. COc1cccc(S(=O)(=O)NC2=NCCN2C(=S)SN2CCn3c2nsc3=S)c1
7. CC(C)(C)c1cc(C[P+](c2ccccc2)(c2ccccc2)c2ccccc2)cc(C(C)(C)C)c1O
8. COC(=O)c1c2c(c(C)[n+]([O-])c1C)C(=O)C(NCc1ccccc1)=CC2=O

["1.99 µM", "3.37 µM", "16.4 µM", "2.33 µM", "1.57 µM", "32.1 µM", "0.545 µM", "2.98 µM"]

# batch: return GI50 for each of the 2 compounds below
1. ClCc1ccccc1Cn1cnc2nc(Cl)nc(Cl)c21
2. Clc1cc(Br)ccc1-c1ccc(CNCC2CCNCC2)o1

1. 0.104 µM
2. 1.58 µM

###

Provide the recorded TGI for the entries that follow.
test system: DU-145 prostate; assay: NCI tumour cell line growth inhibition, 48 h

Guide cases for TGI, answers given:
CCS1=C2C(=O)CC(C)(C)CC2=Nc2ccccc21 (configuration not stated) :: > 100 µM
CC(C)CNC1=NCC(C)S1 (configuration not stated) :: > 100 µM
COc1ccc(C(=O)/C=C/c2cc(-c3ccc(OC)c(OC)c3)n[nH]2)cc1OC :: 4.8 µM
O=C(C[C@@H]1CCCN2CCCC[C@H]12)N1c2ccccc2Sc2ccc(Cl)cc21 :: 28.2 µM
Cn1c(=O)c2c(nc3n2CCCC(=O)N3CCCCl)n(C)c1=O :: > 100 µM

Parameters: items (list). Returns: TGI for each item.
1. O=S(=O)(c1ccccc1)C1CC(c2nc3ccccc3[nH]2)=NO1 (configuration not stated)
2. COc1c(Sc2c(SCSc3cnc4ccccc4c3Sc3cnc4ccccc4c3OC)cnc3ccccc23)cnc2ccccc12
3. COc1ccc(-c2cnc(-c3ccc(OC)cc3)n2-c2cc(OC)c(OC)c(OC)c2)cc1
4. NC1CCN(c2nc3ccccc3c3c2CCCC3)CC1
5. C[N+]1(C(CO)Cc2c[nH]c3ccccc23)Cc2ccccc2C1 (configuration not stated)
6. NC(=O)c1ncn(C2C=CC(CP(=O)(O)O)C2)c1N (configuration not stated)
7. CCCCCSc1ccc2nc(NC(=O)OCC)sc2c1

1. > 100 µM
2. > 100 µM
3. 78.2 µM
4. 24.3 µM
5. > 100 µM
6. > 100 µM
7. > 100 µM

Go through the items and report each one's TGI.
1. O=C1NC(=O)C(CCC(=O)c2cccc3ccccc23)C(=O)N1
2. COc1cc(-n2cc(-c3ccc(Cl)cc3)n(-c3ccccc3)c2=O)cc(OC)c1OC
3. COC(=O)c1c(O)ccc2c1c1c(n2CCc2ccc(OC)c(OC)c2)C(=O)c2ccccc2C1=O
4. N#Cc1c(N)nc2c(c1-c1ccc(Cl)cc1)COc1ccc(F)cc1-2
5. CC(C(=O)NCNC(=O)c1ccccc1)C(=O)Nc1ccccc1 (configuration not stated)
6. O=Cc1ccc(-c2ccc(-c3nc4ccccc4s3)cc2)o1

["> 100 µM", "> 100 µM", "29.5 µM", "> 100 µM", "> 100 µM", "> 100 µM"]

Value sought for every listed compound: TGI.
1. Nc1nc(Cl)c(N)c(NCC2(CO)CCC(OCc3ccccc3)C2)n1 (configuration not stated)
2. Cc1nc2ccc(Cl)cc2c2c1CCN2c1ccc(F)cc1
3. O=C(CCN1CCCCC1)Nc1ccc2c(c1)C(=O)c1ccc(NC(=O)CCN3CCCCC3)cc1C2=O
4. CC(=O)C1C(=O)C(=O)N(c2ccc([N+](=O)[O-])cc2[N+](=O)[O-])C1=O (configuration not stated)

["> 100 µM", "> 100 µM", "26.9 µM", "> 100 µM"]
